Experimental system: soluble epoxide hydrolase (sEH) (Homo sapiens, UniProt P34913)
Sequence (P34913 1-555): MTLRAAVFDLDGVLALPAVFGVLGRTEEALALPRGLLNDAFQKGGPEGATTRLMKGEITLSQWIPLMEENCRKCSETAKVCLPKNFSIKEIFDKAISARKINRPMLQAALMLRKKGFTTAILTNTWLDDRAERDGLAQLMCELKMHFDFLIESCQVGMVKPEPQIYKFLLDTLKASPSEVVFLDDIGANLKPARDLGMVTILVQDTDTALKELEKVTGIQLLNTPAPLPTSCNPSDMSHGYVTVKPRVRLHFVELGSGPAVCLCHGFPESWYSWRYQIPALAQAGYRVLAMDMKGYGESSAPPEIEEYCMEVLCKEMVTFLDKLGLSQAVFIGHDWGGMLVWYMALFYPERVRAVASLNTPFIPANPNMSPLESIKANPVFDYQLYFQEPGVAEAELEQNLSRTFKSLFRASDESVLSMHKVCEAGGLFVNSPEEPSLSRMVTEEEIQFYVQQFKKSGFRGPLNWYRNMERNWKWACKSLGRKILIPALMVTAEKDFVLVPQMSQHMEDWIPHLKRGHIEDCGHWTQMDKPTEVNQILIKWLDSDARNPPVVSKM
Recorded metric: pIC50
Field pIC50 (float): negative decimal logarithm of the concentration in molar.

Prompt: Note pIC50 for the compound shown: `COc1cc2c(cc1O)CC[n+]1cc3c(OC)c(OC)ccc3cc1-2`
Response: 4.56
